- Study System: BRD4 (Homo sapiens)
- Protocol Text: Time Resolved Fluorescence Resonance Energy Transfer (TR-FRET) binding assay, FRET BRD4
- Study Conditions: one of the FRET assays described (BRD4 bromodomain construct not specified); read-out: FRET BRD4 IC50
Reported Endpoint: IC50

Known results for molecules:
Cc1nnn(C)c1-c1cnc2c3ccc(-c4cnn(C(C)C)c4)cc3n([C@H](c3ccccc3)C3CCOCC3)c2c1 | < 5 nM
[2H]C([2H])([2H])c1nnn(C)c1-c1cnc2c3cc(N4CCN(S(C)(=O)=O)CC4)ccc3n([C@H](c3ccc(F)cc3)C3CCOCC3)c2c1 | < 1 nM
[2H]C([2H])([2H])c1nnn(C)c1-c1cnc2c3c(N4CCCS4(=O)=O)ccc(S(C)(=O)=O)c3n([C@H](c3ccccc3F)C3CCOCC3)c2c1 | < 1 nM

Report IC50 on BRD4 (Homo sapiens) for this entry: [2H]C([2H])([2H])c1nnn(C)c1-c1cnc2c3ccc(N4CCC(F)(F)CC4)cc3n(C(c3ncccc3F)C3CCOCC3)c2c1 (stereo not drawn) [Example 66]
< 5 nM

Specify IC50 for [2H]C([2H])([2H])c1nnn(C)c1-c1ccc2c3ncc(-c4c(C)nnn4C)cc3n([C@H](c3ccccc3)C3CCOCC3)c2c1 , system BRD4 (Homo sapiens).
< 1 nM

Answer briefly: IC50 recorded on BRD4 (Homo sapiens) for [2H]C([2H])([2H])c1nnn(C)c1-c1cnc2c3ccc(N4CCC(S(C)(=O)=O)CC4)cc3n(C(c3ncccc3F)C3CCOCC3)c2c1 (stereo not drawn) [Example 69]
< 1 nM

----------
- Study System: UniProt O60885
- Protocol Text: Time Resolved Fluorescence Resonance Energy Transfer (TR-FRET) binding assay, FRET BRD4
- Study Conditions: FRET BRD4 IC50 (nM), one of the FRET assays described (BRD4 bromodomain construct not specified)
Reported Endpoint: IC50

Output measured IC50 for this item: [2H]C([2H])([2H])c1nnn(C)c1-c1cnc2c3ccc(C4(O)CCN(C)CC4)c(F)c3n([C@H](c3ccccc3)C3CCOCC3)c2c1 [Example 54]
< 1 nM

----------
# Lookup of reported pIC50 keyed by entry
- Study System: BRD4 (Homo sapiens)
- Protocol Text: Time Resolved Fluorescence Resonance Energy Transfer (TR-FRET) binding assay, FRET BRD4
- Study Conditions: one of the FRET assays described (BRD4 bromodomain construct not specified); read-out: FRET BRD4 IC50
pIC50: −log10 of the molar value.

Consider the worked cases shown below.
[2H]C([2H])([2H])c1nnn(C)c1-c1cnc2c3ccc(N4CCN(S(C)(=O)=O)CC4)cc3n([C@H](c3ccccc3)C3CCOCC3)c2c1 [Example 46] | > 9.00
Cc1nnn(C)c1-c1cnc2c3ccc(N4CCC(F)(F)CC4)cc3n(C(c3ccccc3)C3CCC(F)(F)CC3)c2c1 (single isomer, unassigned) [Example 76] | > 8.30
[2H]C([2H])([2H])c1nnn(C)c1-c1cnc2c3c(N4CCS(=O)(=O)CC4)ccc(S(C)(=O)=O)c3n([C@H](c3ccccc3)C3CCOCC3)c2c1 [Example 24] | > 8.30
[2H]C([2H])([2H])c1nnn(C)c1-c1cnc2c3c(N4CCCS4(=O)=O)ccc(S(C)(=O)=O)c3n([C@H](c3ccc(F)cc3)C3CCOCC3)c2c1 [Example 33] | > 9.00
Cc1nnn(C)c1-c1cnc2c3c(N4CCCCS4(=O)=O)ccc(S(C)(=O)=O)c3n([C@H](c3ccccc3)C3CCOCC3)c2c1 [Example 20] | > 9.00

Indicate the recorded pIC50 value for this compound: [2H]C([2H])([2H])c1nnn(C)c1-c1cnc2c3c(N4CCCS4(=O)=O)ccc(S(C)(=O)=O)c3n([C@]([2H])(c3ccccc3F)C3CCOCC3)c2c1 [Example 37]
> 8.30

Query pIC50 for [2H]C([2H])([2H])c1nnn(C)c1-c1cnc2c3ccc(C4(O)CCOC4)c(F)c3n([C@H](c3ccccc3)C3CCOCC3)c2c1 (stereo partly drawn) [Example 64]
> 9.00

Supply measured pIC50 of [2H]C([2H])([2H])c1nnn(C)c1-c1cnc2c3c(N4CCC(F)(F)CC4)ccc(S(C)(=O)=O)c3n(C(c3ccccc3)C3CCC(F)(F)CC3)c2c1 (stereo not drawn) [Example 74] in your reply.
> 5.82

Identify pIC50 associated with the compound [2H]C([2H])([2H])c1nnn(C)c1-c1cnc2c3ccc(N4CCCC4=O)c(F)c3n([C@H](c3ccccc3)C3CCOCC3)c2c1 [Example 57]
> 9.00
